- target of assay: Bcl-xL, Q07817
- Sequence (Q07817 1-209): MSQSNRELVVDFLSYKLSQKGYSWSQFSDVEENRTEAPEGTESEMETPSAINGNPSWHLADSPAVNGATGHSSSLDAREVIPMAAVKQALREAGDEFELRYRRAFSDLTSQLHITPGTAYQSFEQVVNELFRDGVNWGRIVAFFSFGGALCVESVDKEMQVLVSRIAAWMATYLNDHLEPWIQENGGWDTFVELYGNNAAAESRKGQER
- measurement description: peptide SPOT array, c-Myc-tagged receptor at 1 uM or 100 nM, anti-c-Myc-Cy3
reported endpoint: SPOT signal as a fraction of Bim BH3's signal on the same receptor and array

Consider the worked cases shown below.
>>> obs_value("ASGNKEMIEALKQYAMDYSNKALEKG [IFIT3]")
0.06
>>> obs_value("EERAQNVTRLLRKQAEEVNTEWEKLN [DMD]")
0.04
>>> obs_value("DLLGMVVVDEDHMLGDSHRGYLLELL [POLQ]")
0.02

(1) ELLYGIWSNCDGLISDSFHMFFDSTA [SLC30A7]
(2) QAGPVSSGLADRKLGDRVQLLNLLVT [CCDC57]
(3) AHKARALARLLRQTALAAFSDFKRLQ [FAM43B]
(4) EQKLKQHVENLNQVAEKLEEKHSQIT [CCDC68]
Incoming: Put the binders in ascending order of SPOT signal as a fraction of Bim BH3's signal on the same receptor and array. Give me the labels in the order the question wants.
Outgoing: 4, 1, 2, 3

(P) VLELHPGAQRLHIGCDEVYYLGEGEA [HEXDC]
(Q) TAGLRPGARLLRVCLQTLPSLRPEAA [SIPA1]
(R) LLDFFMVSILFSKLGDLLHKLQFVLT [PCNXL2]
(S) HQAEVQIARKDQCIADQFHRLHVQQH [BMF]
Incoming: Thanks in advance: please rank these 4 entries by SPOT signal as a fraction of Bim BH3's signal on the same receptor and array, highest to lowest. Give me the labels in the order the question wants.
Outgoing: Q, R, P, S
(Q: 0.86, R: 0.11, P: 0.06, S: 0.03)

Source listed as paper PMC4072508.
